biological target: Full-length glucokinase (beta cell isoform) (Homo sapiens, UniProt P35557); construct: Full-length glucokinase (beta cell isoform) was His-tagged at N-terminus; His tag (N); made in house; host or cells: E. coli BL21(DE3), pBCGK vector; assay: Glucokinase activation assay (PK/LDH-coupled, NADH depletion at 340 nm); format: biochemical; details: 5 mM glucose, 2.5 mM ATP, pH 7.1, room temperature; single value or range where N>1; read-out: EC50
Sequence (P35557 whole entry, canonical isoform): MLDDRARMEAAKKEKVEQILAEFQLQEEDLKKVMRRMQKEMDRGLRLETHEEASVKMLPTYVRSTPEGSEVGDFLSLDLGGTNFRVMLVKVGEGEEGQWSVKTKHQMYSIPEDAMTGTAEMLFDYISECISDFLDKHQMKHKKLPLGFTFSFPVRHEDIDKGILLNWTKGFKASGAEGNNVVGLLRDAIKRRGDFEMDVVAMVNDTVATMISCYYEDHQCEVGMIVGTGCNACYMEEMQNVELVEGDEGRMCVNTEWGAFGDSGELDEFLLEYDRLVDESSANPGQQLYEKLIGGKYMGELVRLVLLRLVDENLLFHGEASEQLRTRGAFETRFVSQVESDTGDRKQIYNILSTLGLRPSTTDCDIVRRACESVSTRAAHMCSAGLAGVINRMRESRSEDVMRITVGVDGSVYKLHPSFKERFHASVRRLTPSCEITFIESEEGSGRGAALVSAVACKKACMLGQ
pEC50: −log10 of the molar value.
measure-name: pEC50

[[record]]
given_smiles = "Cc1ccc(NC(=O)[C@H](CC2CCCC2)n2cc(C(=O)N(C)C)cn2)nc1"
result = "< 4.00"

[[record]]
given_smiles = "O=C(O)c1ccc(NC(=O)[C@H](CC2CCCCC2)n2cnc(C(F)(F)F)c2)nc1"
result = "6.52 to 6.70"

[[record]]
given_smiles = "Cc1ccc(NC(=O)[C@H](CC2CCCC2)n2cnc(C(F)(F)F)n2)nc1"
result = "6.00 to 6.10"

[[record]]
given_smiles = "CC(C)S(=O)(=O)c1cnn([C@@H](CC2CCCC2)C(=O)Nc2ccn(Cc3ccccc3)n2)c1"
result = "5.77 to 5.89"


We next turn to a different molecule, shown below.
Quick check: pEC50 of CS(=O)(=O)c1ccc(NC(=O)[C@H](CC2CCCC2)n2cnc(C(F)(F)F)c2)nc1 ?
5.06 to 5.17
